test system: HEK293T viability, CellTiter-Glo ATP luminescence, 48 h; assay: HEK293T cell viability reduction, dose response, cytotoxicity control for LMP1 NF-kB inhibitor project, CellTiter-Glo luminescence, cherry-picks (AID 504861)
Active and inactive are the calls of the source.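 The calls were made as follows: active = compounds lowering cell viability signal with fitted half-maximal concentration at most ten times their highest tested concentration; inconclusive = flat fit with 30 to 70% signal loss, or poor fit; inactive = the rest.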
Labels: y (active), n (inactive)

1) C[n+]1c2n(c3ccccc31)N=C(c1cc(C(C)(C)C)c(O)c(C(C)(C)C)c1)CS2 = y
2) COc1cccc(/C=N/Nc2ncccc2[N+](=O)[O-])c1OC = y
3) COc1ccccc1[C@]1(C)ON(c2ccccc2C(F)(F)F)C1=O = y
4) CCNC(=S)NNC(=O)c1cc(-c2ccc(OCC)cc2)nc2ccccc12 = y
5) CCOC(=O)c1cn2nc(N3CCCCC3)ccc2n1 = n
6) Cc1ccc2[nH]c3c(N4CCN(Cc5ccccc5)CC4)ncnc3c2c1 = y
7) CCN1CCN(Cc2ccc(NC(=O)c3ccc(C)c(NC(=O)c4cccc5[nH]ccc45)c3)cc2C(F)(F)F)CC1 = y
8) c1ccc(-c2nc(-c3ccccn3)no2)cc1 = y
9) CN(Cc1cnc2nc(N)nc(N)c2n1)c1ccc(C(=O)N[C@@H](CCC(=O)O)C(=O)O)cc1 = y
10) Cc1csc(N=Nc2ccc(N(C)C)cc2)[n+]1[O-] = y
11) O=C(Nc1ccc2c(c1)OCCO2)c1ccccn1 = y

----------
system: HEK293T viability, CellTiter-Glo ATP luminescence, 48 h; experiment: HEK293T cell viability reduction, dose response, cytotoxicity control for LMP1 NF-kB inhibitor project, CellTiter-Glo luminescence, cherry-picks (AID 504861)
Calls of active or inactive are those of the source.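 How the source made its calls: active means compounds lowering cell viability signal with fitted half-maximal concentration at most ten times their highest tested concentration; inconclusive means flat fit with 30 to 70% signal loss, or poor fit; inactive means the rest.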
Classes used: active, inactive

1) COc1cnc(-c2ccccn2)nc1Sc1ccccc1Cl = active
2) NC(=S)NN=Cc1nccc2c(C(F)(F)C(F)(F)C(F)(F)F)cccc12 = active
3) CC(=O)OC1CCC2(C)C(CCC3C4CC=C(C(C)=O)C4(C)OC(=O)CC32)C1 (stereo unspecified) = active
4) CCC(NC(=O)Nc1nnc(C(F)(F)F)s1)(C(F)(F)F)C(F)(F)F = active
5) COc1ccc(-c2ccc(NC(=O)c3ccco3)cc2)nn1 = active
6) Cc1ccc2[nH]c(C(=O)N/N=C/c3ccccc3O)c(C)c2c1 = active
7) COc1ccc(O)c(/C=N/Nc2nc(Nc3ccccc3)nc(-n3nc(C)cc3C)n2)c1 = active
8) Cc1ccc(CSc2nc3ccncc3[nH]2)cc1 = active
9) COc1ccc(Cc2nnc(N/N=C/c3ccc(O)cc3)[nH]c2=O)cc1OC = active
10) COc1ccc(OCc2cccc(C(=O)NN)c2)cc1 = inactive
11) O=C1C(=C(c2ccccc2)N2CCOCC2)Cc2ccccc21 = active

----------
tested on: HEK293T viability, CellTiter-Glo ATP luminescence, 48 h; test: HEK293T cell viability reduction, dose response, cytotoxicity control for LMP1 NF-kB inhibitor project, CellTiter-Glo luminescence, cherry-picks (AID 504861)
Active and inactive are the calls of the source.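 Rule for the calls: active = compounds lowering cell viability signal with fitted half-maximal concentration at most ten times their highest tested concentration; inconclusive = flat fit with 30 to 70% signal loss, or poor fit; inactive = the rest.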
Outcome codes: active, inactive

1. Fc1ccc2[nH]c3c(N4CCSCC4)ncnc3c2c1 = active
2. CCCCC(=O)NC(c1cccc([N+](=O)[O-])c1)c1ccc2cccnc2c1O (stereo unspecified) = active
3. O=C(CCl)N(c1ccc(Cl)cc1)c1c[nH]c2ccccc12 = active
4. O=C(NC1CCCCCCC1)c1cc(COc2ccc3ncccc3c2)on1 = active
5. Oc1ccc2ccccc2c1/C=N/Nc1nnc(-c2ncc[nH]2)c2ccccc12 = active
6. COc1ccc(N/N=C/c2c(C(=O)O)ccc3ccccc23)cc1 = active
7. C#CCN(C[C@@H]1[C@@H](OC(=O)NCc2ccccc2F)[C@@H](OC(=O)NCc2ccccc2F)Cn2c(=O)ccc(=O)n21)S(=O)(=O)c1ccc(C)cc1 = active
8. CC(=NNC(=S)Nc1ccc(C)cc1)c1ccccn1 = active
9. CC(C)CC(=NNC(=O)c1ccncc1)c1cc(Cl)ccc1O = active
10. C#CCN(C[C@@H]1[C@@H](OC(=O)NCCCCCC)[C@@H](OC(=O)NCCCCCC)Cn2c(=O)ccc(=O)n21)S(=O)(=O)c1ccc(C)cc1 = active
11. COc1ccc(-c2nc(-c3cccs3)no2)cc1 = inactive
12. CC(=NNc1nc2ccccc2o1)c1ncccn1 = active
13. COc1cccc(N=Nc2ccc(O)c3ncccc23)c1 = active
14. O=C(N/N=C/c1cc2c3c(c1O)CCCN3CCC2)c1ccccc1O = active
15. CC(=O)NC(c1cccc([N+](=O)[O-])c1)c1ccc2cccnc2c1O (stereo unspecified) = active
16. CCN1CCN(Cc2ccc(NC(=O)c3ccc(C)c(NC(=O)c4c[nH]c5cc(C(F)(F)F)ccc5c4=O)c3)cc2C(F)(F)F)CC1 = active
17. CCN(CC)C(=O)c1ccc(NC(=O)Nc2ccccc2F)cc1 = active
18. c1ccc(C2=NNC(=NC3CC3)SC2)cc1 = active
19. Clc1ccc(SCc2cc(N3CCOCC3)nc(-c3ccccn3)n2)cc1 = active
20. CC(=NNc1nc2ccccc2o1)c1cc2ccccc2cn1 = active
21. CCN1C(=O)[C@@H]2[C@@H](c3ccc(-c4ccc(Cl)c(Cl)c4)cc3)N3CCC[C@@]3(C(=O)OC)[C@@H]2C1=O = inactive

----------
tested on: HEK293T viability, CellTiter-Glo ATP luminescence, 48 h; test: HEK293T cell viability reduction, dose response, cytotoxicity control for LMP1 NF-kB inhibitor project, CellTiter-Glo luminescence, cherry-picks (AID 504861)
The source made the active and inactive calls.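 Rule for the calls: active = compounds lowering cell viability signal with fitted half-maximal concentration at most ten times their highest tested concentration; inconclusive = flat fit with 30 to 70% signal loss, or poor fit; inactive = the rest.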
Possible outcomes: active, inactive

1. O=C(Nc1nc2ccc(F)cc2s1)C1=COCCO1 = active
2. Cn1c(/C=C/c2ccccc2)nc2ccccc21 = active
3. CC(=NNC(=S)N1CCCCC1)c1cccc(C)n1 = inactive
4. NC(=S)NN=Cc1nccc2c(C(F)(F)F)cccc12 = active
5. CS(=O)(=O)c1ncc(Cl)c(C(=O)Nc2ccc(OC(F)F)cc2)n1 = active
6. OC1(c2cccc(C(F)(F)F)c2)CCN(c2ncnc3c2[nH]c2ccc(F)cc23)CC1 = active
7. O=C(O)c1cc(/C=C/c2ccc(N3CCOCC3)cc2)nc2ccccc12 = inactive
8. CC(=O)NC(c1ccc(C(C)C)cc1)c1ccc2cccnc2c1O (stereo unspecified) = active
9. CCC(=O)NC(c1ccc(Cl)cc1Cl)c1ccc2cccnc2c1O (stereo unspecified) = active
10. CCOc1ccc(OCC(=O)Nc2nccs2)cc1 = active
11. COc1ccc(O)c(/C=N/NC(=O)c2ccc(OCc3cccc(Br)c3)cc2)c1 = active

----------
tested on: HEK293T viability, CellTiter-Glo ATP luminescence, 48 h; experiment: HEK293T cell viability reduction, dose response, cytotoxicity control for LMP1 NF-kB inhibitor project, CellTiter-Glo luminescence, cherry-picks (AID 504861)
The source made the active and inactive calls.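 The calls were made as follows: active = compounds lowering cell viability signal with fitted half-maximal concentration at most ten times their highest tested concentration; inconclusive = flat fit with 30 to 70% signal loss, or poor fit; inactive = the rest.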
Outcome codes: active, inactive

1. NC(=S)N/N=C/c1ncc(C(F)(F)F)cc1Cl = active
2. Cc1ccsc1/C=C/c1ccc2ccccc2n1 = active
3. O=C(CF)N(O)c1ccc(C=Cc2ccccc2)cc1 = inactive
4. c1ccc(-c2cccc(-c3ccccn3)n2)nc1 = active
5. CCCCC(=O)NC(c1ccc(Cl)cc1Cl)c1ccc2cccnc2c1O (stereo not drawn) = active
6. CCN(CC)c1ccc(/C=N/Nc2nc3ccccc3[nH]2)c(O)c1 = active
7. CCOc1ccc(Br)cc1/C(C)=N\NC1=NCCN1 = active
8. S=C(NN=Cc1ccccn1)Nc1ccccn1 = active
9. CC(=NNC(=S)N1CCN(c2ccccn2)CC1)c1nccs1 = active
10. COc1ccc(C(=O)C(CN2CCOCC2)c2ccccc2)cc1F (stereo not drawn) = active
11. C#CCN(C[C@@H]1[C@@H](OC(=O)NCC2CCCCC2)[C@@H](OC(=O)NCC2CCCCC2)Cn2c(=O)ccc(=O)n21)S(=O)(=O)c1ccc(C)cc1 = active
12. c1ccc(CCCN2CCN(CCOC(c3ccccc3)c3ccccc3)CC2)cc1 = active
13. CCC(=O)NC(c1ccc(C)cc1)c1ccc2cccnc2c1O (stereo not drawn) = active
14. CN(C)c1ccc(-c2nc3ccccc3n2C)cc1 = active
15. COc1ccc2[nH]c(-c3ccc(C)cc3)cc(=O)c2c1 = inactive
16. CCCC(=O)NC(c1ccc(C)cc1)c1ccc2cccnc2c1O (stereo not drawn) = active
17. Cc1cc(Sc2nnc(N)s2)c2ccccc2n1 = active
18. CCN1CCN(Cc2ccc(NC(=O)c3ccc(C)c(NC(=O)c4nccnc4N)c3)cc2C(F)(F)F)CC1 = active
19. c1ccn2cc(-c3ccc4c(c3)OCCO4)nc2c1 = active
20. C#Cc1cc(N2CCN(C(=O)c3ccoc3)CC2)n2nc(-c3cccc(Cl)c3)cc2n1 = active
21. CCOc1ccc(OCc2cccc(C(=O)N/N=C/c3cccnc3)c2)cc1 = inactive
22. C(=Cc1cnc2ccccc2n1)c1ccc2c(c1)OCO2 = active
23. COc1ccc(C(NC(C)=O)c2cc(Cl)c3cccnc3c2O)cc1 (stereo not drawn) = active
24. O=C(N/N=C/c1cccs1)c1n[nH]c2c1CCCC2 = active
25. C=CCn1c(O)c(N=NC(=S)Nc2cccc(C)c2)c2ccccc21 = inactive
26. COc1ccccc1N(C(C)=O)C1=C(Cl)C(=O)c2ccccc2C1=O = active
27. COc1ccc(NC2=NCC(Cc3ccc(Br)cc3)S2)cc1 (stereo not drawn) = active
28. CCCCC(=O)NC(c1ccc(N(CC)CC)cc1)c1ccc2cccnc2c1O (stereo not drawn) = active
29. COc1cc(C=C2CCCC(=Cc3ccc(OCC4CO4)c(OC)c3)C2=O)ccc1OCC1CO1 (stereo not drawn) = active
30. CC1(C)N=C(N)N=C(N)N1c1ccc(CCCCc2ccccc2)cc1 = active
31. CCCc1sc(N/N=C/c2ccccn2)nc1-c1ccc(Br)cc1 = active
32. COc1ccccc1NC(=O)c1c(Nc2ccccc2C)sc(C(=O)Nc2cccc(Cl)c2)c1N = active
33. O=C(c1ccccc1)C(CCC(CN1CCOCC1)C(=O)c1ccccc1)CN1CCOCC1 (stereo not drawn) = active
